test-name: Solubility via potentiometric titration (pSOL solubility profiler)
Assay type: physicochemical
measurement-conditions: water, thermodynamic from solid, in water; read-out: solubility in water
measured-quantity: solubility
Answer with the number, then the unit.

input: # input compound: Cl.N#Cc1ccc2[nH]cc(CCCCN3CCN(c4ccc5oc(C(N)=O)cc5c4)CC3)c2c1 [Form IV] ; wanted: its solubility
output: 0.328 µg/mL

###

test-name: Solubility via potentiometric titration (pSOL solubility profiler)
Type: physicochemical
measurement-conditions: water, thermodynamic from solid; potentiometric titration according to Avdeef et al.; read-out: Solubility data
measured-quantity: solubility (µg/mL)
Numeric only. Scale: µg/mL

input: Look at this compound and give its reported solubility. Cl.N#Cc1ccc2[nH]cc(CCCCN3CCN(c4ccc5oc(C(N)=O)cc5c4)CC3)c2c1.O [Form V]
output: 0.18
